# ASSAYED SYSTEM: Platelet-derived growth factor receptor beta (Homo sapiens)
# Sequence (P09619 whole entry): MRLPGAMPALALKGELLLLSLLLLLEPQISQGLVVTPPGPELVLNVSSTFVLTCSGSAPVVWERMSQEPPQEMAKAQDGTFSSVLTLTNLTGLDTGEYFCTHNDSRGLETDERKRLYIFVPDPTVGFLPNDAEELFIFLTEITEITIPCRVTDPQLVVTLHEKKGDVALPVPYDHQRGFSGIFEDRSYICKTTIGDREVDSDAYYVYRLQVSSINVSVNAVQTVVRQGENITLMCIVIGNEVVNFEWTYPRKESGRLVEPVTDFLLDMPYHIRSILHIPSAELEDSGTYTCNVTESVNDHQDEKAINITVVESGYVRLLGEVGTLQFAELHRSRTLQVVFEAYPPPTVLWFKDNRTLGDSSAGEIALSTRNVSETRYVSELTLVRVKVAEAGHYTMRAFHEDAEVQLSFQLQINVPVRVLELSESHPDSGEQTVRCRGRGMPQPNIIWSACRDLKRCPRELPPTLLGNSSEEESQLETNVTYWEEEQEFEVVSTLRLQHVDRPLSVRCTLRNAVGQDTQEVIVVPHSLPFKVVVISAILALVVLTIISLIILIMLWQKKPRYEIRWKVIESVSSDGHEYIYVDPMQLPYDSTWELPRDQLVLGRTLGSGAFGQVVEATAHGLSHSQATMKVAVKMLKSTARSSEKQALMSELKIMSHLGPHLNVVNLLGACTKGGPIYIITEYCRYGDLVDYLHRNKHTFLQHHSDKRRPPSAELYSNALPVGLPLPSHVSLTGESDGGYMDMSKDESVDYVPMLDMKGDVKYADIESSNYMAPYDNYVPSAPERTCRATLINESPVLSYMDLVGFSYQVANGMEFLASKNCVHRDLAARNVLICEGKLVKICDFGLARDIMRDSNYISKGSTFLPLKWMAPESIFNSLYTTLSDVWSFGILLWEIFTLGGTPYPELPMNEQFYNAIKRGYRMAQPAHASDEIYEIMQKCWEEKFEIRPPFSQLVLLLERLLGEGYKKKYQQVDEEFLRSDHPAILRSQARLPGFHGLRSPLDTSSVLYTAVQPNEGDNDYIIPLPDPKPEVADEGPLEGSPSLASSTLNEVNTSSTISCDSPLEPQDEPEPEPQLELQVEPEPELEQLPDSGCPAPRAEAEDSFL
pIC50: −log10 of the molar value.
QUANTITY KIND: pIC50

input_smiles=CC(C)(C)c1cc(NC(=O)Nc2ccc(C#Cc3ccc(OCCCN4CCOCC4)cc3)cc2)no1 assayed_system="Platelet-derived growth factor receptor beta (Homo sapiens)" test_value=5.79

* * *

# METHOD DESCRIPTION: Clearance in mouse plasma at 2 mg/kg, iv measured up to 24 hrs by LC-MS/MS analysis
# Assay type: ADME, organism-based
QUANTITY KIND: clearance (mL/min/kg)

input_smiles=CC(C)(C)c1cc(NC(=O)Nc2ccc(C#Cc3ccc(OCCCN4CCOCC4)cc3)cc2)no1 test_value=18.9

* * *

# Test system: U-251
# METHOD DESCRIPTION: cells
# CONDITION SUMMARY: Homo sapiens, U-251, 72 h
# Description: Antiproliferative activity against human U-251 cells assessed as inhibition of cell growth incubated for 72 hrs by celltiter-glo luminescent cell viability assay
pIC50: −log10 of the molar value.
QUANTITY KIND: pIC50

input_smiles=CC(C)(C)c1cc(NC(=O)Nc2ccc(C#Cc3ccc(OCCCN4CCOCC4)cc3)cc2)no1 test_value="< 5.00"

* * *

# METHOD DESCRIPTION: Half life in monkey plasma at 5 mg/kg, po measured up to 24 hrs by LC-MS/MS analysis
# Format: ADME, organism-based, Macaca mulatta
# CONDITION SUMMARY: rhesus monkey
QUANTITY KIND: half-life (h)

input_smiles=CC(C)(C)c1cc(NC(=O)Nc2ccc(C#Cc3ccc(OCCCN4CCOCC4)cc3)cc2)no1 quantity_kind=half-life test_value=8.94

* * *

# METHOD DESCRIPTION: Cmax in NOD/SCID mouse plasma xenografted with human MV4-11 cells at 0.5 mg/kg, po measured up to 24 hrs by LC-MS/MS analysis
# Type: ADME, organism-based
QUANTITY KIND: Cmax (ng/mL)

input_smiles=CC(C)(C)c1cc(NC(=O)Nc2ccc(C#Cc3ccc(OCCCN4CCOCC4)cc3)cc2)no1 test_value=20.5

* * *

# METHOD DESCRIPTION: Volume of distribution at steady state in mouse plasma at 2 mg/kg, iv measured up to 24 hrs by LC-MS/MS analysis
# Format: ADME, organism-based
# CONDITION SUMMARY: read-out: Vdss
QUANTITY KIND: Vd (L/kg)

input_smiles=CC(C)(C)c1cc(NC(=O)Nc2ccc(C#Cc3ccc(OCCCN4CCOCC4)cc3)cc2)no1 quantity_kind=Vd test_value=1.36

* * *

# METHOD DESCRIPTION: AUC (0 to t) in NOD/SCID mouse plasma xenografted with human MV4-11 cells at 4.5 mg/kg, po measured up to 24 hrs by LC-MS/MS analysis
# Assay type: ADME, organism-based
QUANTITY KIND: AUC(0-t) at 24 h (ng·h/mL)

input_smiles=CC(C)(C)c1cc(NC(=O)Nc2ccc(C#Cc3ccc(OCCCN4CCOCC4)cc3)cc2)no1 test_value=908

* * *

# ASSAYED SYSTEM: Mast/stem cell growth factor receptor Kit (Homo sapiens, UniProt P10721, T670I/V559D)
# Sequence (P10721 26-976 V559D/T670I limits assumed): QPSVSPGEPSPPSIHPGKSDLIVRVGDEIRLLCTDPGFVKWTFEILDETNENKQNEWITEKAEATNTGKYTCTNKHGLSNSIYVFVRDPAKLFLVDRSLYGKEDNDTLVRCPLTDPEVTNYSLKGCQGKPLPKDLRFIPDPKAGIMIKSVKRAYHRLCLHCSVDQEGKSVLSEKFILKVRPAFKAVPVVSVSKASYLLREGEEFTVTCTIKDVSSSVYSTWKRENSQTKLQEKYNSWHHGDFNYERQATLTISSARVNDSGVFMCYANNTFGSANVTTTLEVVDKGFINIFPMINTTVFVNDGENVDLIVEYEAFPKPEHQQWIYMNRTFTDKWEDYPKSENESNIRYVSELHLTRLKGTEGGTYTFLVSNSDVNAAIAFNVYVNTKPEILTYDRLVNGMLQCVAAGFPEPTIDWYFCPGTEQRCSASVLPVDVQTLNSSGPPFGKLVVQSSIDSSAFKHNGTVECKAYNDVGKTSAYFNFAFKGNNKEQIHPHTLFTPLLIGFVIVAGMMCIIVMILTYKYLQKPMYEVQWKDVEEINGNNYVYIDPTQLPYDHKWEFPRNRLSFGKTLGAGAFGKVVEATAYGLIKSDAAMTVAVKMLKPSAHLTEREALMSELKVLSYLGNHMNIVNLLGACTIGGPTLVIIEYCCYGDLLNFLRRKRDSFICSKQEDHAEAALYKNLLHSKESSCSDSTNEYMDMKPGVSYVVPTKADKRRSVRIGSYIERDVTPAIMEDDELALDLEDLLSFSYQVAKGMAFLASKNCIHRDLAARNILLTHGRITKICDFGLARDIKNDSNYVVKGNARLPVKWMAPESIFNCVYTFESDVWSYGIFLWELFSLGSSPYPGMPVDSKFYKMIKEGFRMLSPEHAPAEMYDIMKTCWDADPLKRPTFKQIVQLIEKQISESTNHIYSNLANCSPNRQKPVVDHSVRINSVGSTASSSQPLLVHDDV
# METHOD DESCRIPTION: Inhibition of human KIT V559D/T670I mutant by biochemical kinase binding assay
pIC50: −log10 of the molar value.
QUANTITY KIND: pIC50

input_smiles=CC(C)(C)c1cc(NC(=O)Nc2ccc(C#Cc3ccc(OCCCN4CCOCC4)cc3)cc2)no1 test_value=6.55
